Hey, just so you know, these numbers are from paper PMC11931385.

Parameter Kd: see the listing below.
assaySystem: T1, Rb^P E554K (human, UniProt P06400 380-788, E554K)
T1 construct: also called variant 28
T1 sequence (looked up): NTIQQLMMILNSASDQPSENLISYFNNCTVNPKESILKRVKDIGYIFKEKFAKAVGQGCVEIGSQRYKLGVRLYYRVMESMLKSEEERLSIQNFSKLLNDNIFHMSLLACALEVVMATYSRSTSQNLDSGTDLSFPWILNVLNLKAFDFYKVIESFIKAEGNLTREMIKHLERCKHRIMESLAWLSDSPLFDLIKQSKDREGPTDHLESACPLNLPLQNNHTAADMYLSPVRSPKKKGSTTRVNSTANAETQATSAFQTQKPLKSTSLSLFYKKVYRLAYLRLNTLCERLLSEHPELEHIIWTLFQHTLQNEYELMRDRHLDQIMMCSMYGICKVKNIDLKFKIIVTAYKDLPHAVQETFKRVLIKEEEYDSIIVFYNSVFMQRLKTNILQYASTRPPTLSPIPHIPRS
testMethodNotes: fluorescence polarisation; 25 °C after warming to 37 °C (7 min ramp, 2 min at 37 °C), 1 min on ice and 3 min at 25 °C; unlabeled Rb^P against 1.5 nM TMR-E2F1^TD or 7.5 nM TMR-E7^LxCxE; 25 mM Tris pH 8.0, 200 mM NaCl, 1 mM DTT, 0.1% Tween-20; apparent Kd
measurementParameters: both partners purified
No end group written: not given here. TMR = tetramethyl rhodamine dye
Reply numerically in nM, unit not repeated.

binder	units	reportedMeasurement
{TMR}-GEGIRDLFDCDFGDLTPLD (also called E2F^TD; source: synthetic peptide, bought: GenScript) [TMR-E2F1^TD, peptide of the E2F1 transactivation domain]	nM	1740

Lab note: next binder to report on.
Kd measured on DLYCYEQLN (also: TMR label, position not given here, source: synthetic peptide, bought: GenScript) [TMR-E7^LxCxE, LxCxE peptide of the E7 oncoprotein from HPV] = 24
